# System: HCT116 isogenic IDH1-R132C mutant cells
# Assay Name: Cellular 2-HG assay using HCT116 mutant IDH1 cells (R132C), RapidFire mass spectrometry
# Assay type: cell-based
# Conditions Used: Homo sapiens, HCT-116; cellular 2-HG level, HCT116 IDH1-R132C cells, 24 hours; read-out: HCT116 IDH1 R132C IC50 (Range)
// values below are reported IC50

Use these answered entries as a reference point.
Qu. What measured IC50 goes with C[C@H](Nc1ncc(C#N)c(O)n1)c1cc2cc(Cl)c(OCc3ccccn3)cc2[nH]c1=O ?
Ans. 1 to 10 µM

Qu. Thanks! And CC(=O)Nc1ccnc(NC(C)c2cc3cc(Cl)c(OCc4ccccn4)cc3[nH]c2=O)n1 (stereo not shown) ?
Ans. < 0.1 µM

Qu. Now try COc1nc(N[C@@H](C)c2cc3cc(Cl)cc(F)c3[nH]c2=O)ncc1C#N .
Ans. 0.1 to 1 µM

Qu. Try the compound CC(C)(Nc1nccc(N2CCOC2=O)n1)c1cc2cc(Cl)ccc2[nH]c1=O
Ans. 1 to 10 µM

Qu. Try this compound next: C[C@H](Nc1nccc(-n2nnnc2C2CC2)n1)c1cc2cc(Cl)ccc2[nH]c1=O
Ans. 0.1 to 1 µM

Continuing:
Qu. # query: IC50 of entry COc1nc(N[C@@H](C)c2cc3cc(Cl)c(OCc4ccccn4)cc3[nH]c2=O)ncc1C#N
Ans. < 0.1 µM

Qu. And the next one, Cc1nc(N[C@@H](C)c2cc3cc(Cl)c(OCc4ccccn4)cc3[nH]c2=O)ncc1C#N ?
Ans. < 0.1 µM

Qu. Try this compound next: COc1nc(N[C@@H](C)c2cc3cc(Cl)c(Br)cc3[nH]c2=O)ncc1C#N
Ans. 0.1 to 1 µM

Qu. Now this one: C[C@H](Nc1nccc(-c2cnc3ccccn23)n1)c1cc2cc(Cl)ccc2[nH]c1=O
Ans. 1 to 10 µM

Qu. Now the same for COC(=O)Nc1ccnc(N[C@@H](C)c2cc3cc(Cl)ccc3[nH]c2=O)n1
Ans. < 0.1 µM

Qu. # iterate: C[C@H](Nc1nccc(-n2nnnc2C2CC2)n1)c1cc2cc(Cl)cnc2[nH]c1=O
Ans. 0.1 to 1 µM

###

# Measurement Target: IDH1-R132C recombinant protein (Homo sapiens (Human), UniProt O75874, R132C)
# Sequence (O75874 whole entry R132C): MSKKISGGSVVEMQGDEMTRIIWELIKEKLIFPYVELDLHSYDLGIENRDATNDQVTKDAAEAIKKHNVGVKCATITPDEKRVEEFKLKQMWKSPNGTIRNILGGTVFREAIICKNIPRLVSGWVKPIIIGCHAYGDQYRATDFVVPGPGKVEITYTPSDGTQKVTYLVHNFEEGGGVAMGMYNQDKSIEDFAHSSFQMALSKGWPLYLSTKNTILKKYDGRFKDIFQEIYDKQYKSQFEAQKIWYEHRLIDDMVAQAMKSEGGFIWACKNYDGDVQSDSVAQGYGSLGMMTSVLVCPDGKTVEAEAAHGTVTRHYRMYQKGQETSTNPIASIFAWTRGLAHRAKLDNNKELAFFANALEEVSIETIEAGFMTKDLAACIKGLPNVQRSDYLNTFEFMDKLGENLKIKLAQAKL
# Assay Name: IDH1-R132C enzymatic assay (inhibition of NADPH consumption, diaphorase/resazurin readout)
# Conditions Used: read-out: Enzyme IDH1 R132C IC50 (Range)
Attribute Measured: IC50

Qu. Quick one: IC50 of COc1nc(N[C@@H](C)c2cc3cc(Cl)c(Br)cc3[nH]c2=O)ncc1C#N ?
Ans. 100 to 1000 nM

Qu. // repeat for C[C@H](Nc1ncc(C#N)c(=O)[nH]1)c1cc2cc(Cl)ccc2[nH]c1=O and report
Ans. 1000 to 10000 nM

Qu. Same question, CC(C)N(c1ccnc(N[C@@H](C)c2cc3cc(Cl)ccc3[nH]c2=O)n1)S(=O)(=O)c1ccc2c(c1)oc(=O)n2C this time
Ans. 1000 to 10000 nM

Qu. Param item: C[C@H](Nc1nccc(N2CCNC2=O)n1)c1cc2cc(Cl)ccc2[nH]c1=O
Ans. 100 to 1000 nM

Qu. Please do the same for COc1cnccc1-c1ccnc(N[C@@H](C)c2cc3cc(Cl)ccc3[nH]c2=O)n1 as well.
Ans. 1000 to 10000 nM

More entries:
Qu. Quick one: IC50 for CC(C)[C@H]1COC(=O)N1c1ccnc(NCc2cc3cc(Cl)ccc3[nH]c2=O)n1 ?
Ans. < 100 nM

Qu. Thanks! And COC(=O)c1ccnc(N[C@@H](C)c2cc3cc(Cl)ccc3[nH]c2=O)n1 ?
Ans. 1000 to 10000 nM

Qu. Same lookup for COc1nc(N[C@@H](C)c2cc3cc(Cl)c(F)cc3[nH]c2=O)ncc1C#N , please.
Ans. 100 to 1000 nM

###

# Measurement Target: IDH1-R132H recombinant protein (Homo sapiens (Human), UniProt O75874, R132H)
# Sequence (O75874 whole entry R132H): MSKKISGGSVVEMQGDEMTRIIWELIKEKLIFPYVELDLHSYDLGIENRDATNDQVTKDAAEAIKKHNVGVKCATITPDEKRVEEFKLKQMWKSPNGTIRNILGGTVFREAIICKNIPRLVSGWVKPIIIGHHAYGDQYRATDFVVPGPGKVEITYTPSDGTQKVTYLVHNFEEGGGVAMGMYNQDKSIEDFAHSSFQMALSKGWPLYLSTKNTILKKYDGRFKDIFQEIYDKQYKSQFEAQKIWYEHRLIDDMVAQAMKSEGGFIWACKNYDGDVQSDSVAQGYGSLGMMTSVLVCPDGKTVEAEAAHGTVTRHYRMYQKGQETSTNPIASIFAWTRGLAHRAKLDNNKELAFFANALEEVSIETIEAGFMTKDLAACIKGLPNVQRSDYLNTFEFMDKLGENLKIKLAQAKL
# Assay Name: IDH1-R132H enzymatic assay (inhibition of NADPH consumption, diaphorase/resazurin readout)
# Conditions Used: read-out: Enzyme IDH1 R132H IC50 (Range)
# Procedure: Assays were performed in a 384-well black plate. […] The plate was maintained at 25° C. for 15 minutes and then read on a plate reader with excitation and emission wavelengths at 535 nm and 590 nm, respectively. The IC50 of a given compound was calculated by fitting the dose response curve of inhibition of NADPH consumption at a given concentration with the four parameter logistic equation.
pIC50: −log10 of the molar value.
Attribute Measured: pIC50

Qu. Name the reported pIC50 value associated with the molecule CC(C)CS(=O)(=O)c1ccnc(N[C@@H](C)c2cc3cc(Cl)ccc3[nH]c2=O)n1
Ans. 6.00 to 7.00

Qu. Also COc1nc(N[C@@H](C)c2cc3cc(Cl)ccc3n(C)c2=O)ncc1C#N ?
Ans. 5.00 to 6.00

Qu. Param item: COc1nc(N[C@@H](C)c2cc3cc(Cl)c(Br)cc3[nH]c2=O)ncc1C#N
Ans. > 7.00

***
Qu. # get_value(readout='pIC50', item= C[C@H](Nc1nccc(-c2coc3ccccc23)n1)c1cc2cc(Cl)ccc2[nH]c1=O )
Ans. 5.00 to 6.00

Qu. Query C[C@@H](Nc1nccc(N2CCOC2=O)n1)c1cc2cc(Cl)ccc2[nH]c1=O next
Ans. 5.00 to 6.00

Qu. Repeat for the following molecule: C[C@H](Nc1nccc(NC(=O)C2CC2)n1)c1cc2cc(Cl)ccc2[nH]c1=O
Ans. > 7.00

Qu. Input CC(Nc1nccc(N(C(C)C)S(C)(=O)=O)n1)c1cc2cc(Cl)ccc2[nH]c1=O (stereo not shown)
Ans. 6.00 to 7.00

Qu. Same lookup for C[C@H](Nc1nccc(-c2cnnn2C)n1)c1cc2cc(Cl)ccc2[nH]c1=O , please.
Ans. 6.00 to 7.00

Qu. Try this molecule too: O=C1CCCN1c1ccnc(NCc2cc3cc(Cl)ccc3[nH]c2=O)n1
Ans. 6.00 to 7.00

Qu. Follow-up entry: C[C@H](Nc1nccc(N2CCCS2(=O)=O)n1)c1cc2cc(Cl)ccc2[nH]c1=O
Ans. 6.00 to 7.00

Qu. Now this one: C[C@H](Nc1nccc(-c2c[nH]nc2C(F)(F)F)n1)c1cc2cc(Cl)ccc2[nH]c1=O
Ans. 5.00 to 6.00

Qu. Do the same for CC(Nc1nccc(N2CCOC2=O)n1)c1cc2cc(Cl)ccc2[nH]c1=O (stereo not shown) please
Ans. > 7.00

Qu. Would you kindly repeat that for C[C@H](Nc1nccc(C(N)=O)n1)c1cc2cc(Cl)ccc2[nH]c1=O ?
Ans. > 7.00

###

# Measurement Target: IDH1-R132H recombinant protein (Homo sapiens (Human), UniProt O75874, R132H)
# Assay Name: IDH1-R132H enzymatic assay (inhibition of NADPH consumption, diaphorase/resazurin readout)
# Conditions Used: read-out: Enzyme IDH1 R132H IC50 (Range)
# Experimental: Assays were performed in a 384-well black plate. […] The plate was maintained at 25° C. for 15 minutes and then read on a plate reader with excitation and emission wavelengths at 535 nm and 590 nm, respectively. The IC50 of a given compound was calculated by fitting the dose response curve of inhibition of NADPH consumption at a given concentration with the four parameter logistic equation.
pIC50: −log10 of the molar value.
Attribute Measured: pIC50

Qu. What value of pIC50 has been reported for the following compound? COc1nc(N[C@@H](C)c2cc3cc(Cl)c(OCc4ccccn4)cc3[nH]c2=O)ncc1C#N [Compound I-151]
Ans. > 7.00

Qu. Now try CC(C)N(c1ccnc(N[C@@H](C)c2cc3cc(Cl)ccc3[nH]c2=O)n1)S(=O)(=O)c1ccc2c(c1)oc(=O)n2C [Compound I-21] .
Ans. 6.00 to 7.00

###

# Measurement Target: IDH1-R132C recombinant protein (Homo sapiens (Human), UniProt O75874, R132C)
# Assay Name: IDH1-R132C enzymatic assay (inhibition of NADPH consumption, diaphorase/resazurin readout)
# Conditions Used: read-out: Enzyme IDH1 R132C IC50 (Range)
Attribute Measured: IC50

Qu. Could you tell me which IC50 is on file for CC(C)CN(C(=O)C1CC1)c1ccnc(N[C@@H](C)c2cc3cc(Cl)ccc3[nH]c2=O)n1 ?
Ans. 1000 to 10000 nM

Qu. Another compound: C[C@H](Nc1nccc(-n2cccc2C(F)(F)F)n1)c1cc2cc(Cl)ccc2[nH]c1=O
Ans. 1000 to 10000 nM

Now consider a different compound.
Qu. Please give the measured IC50 for this compound: O=C1OCCN1c1ccnc(NCc2cc3cc(Cl)ccc3[nH]c2=O)n1
Ans. 100 to 1000 nM
